test_protocol: Brain penetration after oral administration to mice
Assay type: in vivo
settings: mouse, brain, 10 mg/kg, administered to mice, read-out: brain penetration
quantity_name: Kp
Answers are plain numbers.

// query Please look up its Kp: O=C(Cc1ccc(-c2ccc(N3CCOCC3)cc2)cn1)NCc1cccc(F)c1
// result 0.76

* * *

test_protocol: Brain penetration after oral administration to mice
Format: in vivo
settings: mouse, brain (relative to plasma), mice, 10 mg/kg, read-out: ratio of drug levels in the brain compared to plasma levels
quantity_name: Kp
One number for each entry.

// query Please look up its Kp: O=C(Cc1ccc(-c2ccc(N3CCOCC3)cc2)cn1)NCc1cccc(F)c1
// result 0.76
